experiment: Chemical stability assessed as compound remaining after proteolytic cleavage after 2 hrs in presence of chymotrypsin; format: physicochemical; conditions: read-out: Stability
assay-readout: remaining at 2 h (%)

{"substance": "Ac-LPFFDLPFFD-NH2", "assay-readout": "remaining at 2 h", "endpoint-value": 22}

----------
test: Chemical stability assessed as compound remaining after proteolytic cleavage after 20 hrs in presence of chymotrypsin; format: physicochemical; conditions: read-out: Stability
Residues, ends and D or L forms follow the SMILES beside them.

{"compound": "CC(=O)N[C@@H](CC(C)C)C(=O)N1C[C@@H](c2ccccc2)[C@@H]1C(=O)N[C@@H](Cc1ccccc1)C(=O)N[C@@H](Cc1ccccc1)C(=O)N[C@@H](CC(=O)O)C(N)=O (HELM PEPTIDE1{[ac].L.[O=C([C@H]1[C@H](c2ccccc2)CN1[*:1])[*:2]].F.F.D.[am]}$$$$V2.0)", "remaining at 20 h / %": 15}
{"compound": "CC(C)C[C@H](NS(=O)(=O)CCN(C)C)C(=O)N1CCC[C@H]1C(=O)N[C@@H](Cc1ccccc1)C(=O)N[C@@H](Cc1ccccc1)C(=O)N[C@@H](CC(=O)O)C(N)=O (HELM PEPTIDE1{[CN(C)CCS(=O)(=O)[*:2]].L.P.F.F.D.[am]}$$$$V2.0)", "remaining at 20 h / %": 55}
{"compound": "CC(=O)N[C@@H](CC(C)C)C(=O)N1CCC[C@H]1CS(=O)(=O)N[C@@H](Cc1ccccc1)C(=O)N[C@@H](Cc1ccccc1)C(=O)N[C@@H](CC(=O)O)C(N)=O", "remaining at 20 h / %": 15}
{"compound": "CC(=O)N[C@@H](CC(C)C)C(=O)N1CCC[C@H]1CC(=O)N[C@@H](Cc1ccccc1)C(=O)N[C@@H](Cc1ccccc1)C(=O)N[C@@H](CC(=O)O)C(N)=O (HELM PEPTIDE1{[ac].L.[O=C(C[C@@H]1CCCN1[*:1])[*:2]].F.F.D.[am]}$$$$V2.0)", "remaining at 20 h / %": 15}
{"compound": "CC(=O)N[C@@H](CC(C)C)C(=O)N1CC[C@H]1C(=O)N[C@@H](Cc1ccccc1)C(=O)N[C@@H](Cc1ccccc1)C(=O)N[C@@H](CC(=O)O)C(N)=O (HELM PEPTIDE1{[ac].L.[O=C([C@@H]1CCN1[*:1])[*:2]].F.F.D.[am]}$$$$V2.0)", "remaining at 20 h / %": 15}

----------
assay: Chemical stability assessed as compound remaining after proteolytic cleavage after 2 hrs in presence of chymotrypsin; assay type: physicochemical; settings: read-out: Stability
Residues, ends and D or L forms follow the SMILES beside them.
assay-readout: remaining at 2 h

{"compound": "CC(=O)N[C@@H](CC(C)C)C(=O)N1CC[C@H]1C(=O)N[C@@H](Cc1ccccc1)C(=O)N[C@@H](Cc1ccccc1)C(=O)N[C@@H](CC(=O)O)C(N)=O (HELM PEPTIDE1{[ac].L.[O=C([C@@H]1CCN1[*:1])[*:2]].F.F.D.[am]}$$$$V2.0)", "endpoint-value": "35%"}
{"compound": "CC(=O)N[C@@H](CC(C)C)C(=O)N1CCC[C@H]1CC(=O)N[C@@H](Cc1ccccc1)C(=O)N[C@@H](Cc1ccccc1)C(=O)N[C@@H](CC(=O)O)C(N)=O (HELM PEPTIDE1{[ac].L.[O=C(C[C@@H]1CCCN1[*:1])[*:2]].F.F.D.[am]}$$$$V2.0)", "endpoint-value": "35%"}
{"compound": "CC(=O)N[C@@H](CC(C)C)C(=O)N1C[C@@H](c2ccccc2)[C@@H]1C(=O)N[C@@H](Cc1ccccc1)C(=O)N[C@@H](Cc1ccccc1)C(=O)N[C@@H](CC(=O)O)C(N)=O (HELM PEPTIDE1{[ac].L.[O=C([C@H]1[C@H](c2ccccc2)CN1[*:1])[*:2]].F.F.D.[am]}$$$$V2.0)", "endpoint-value": "35%"}
{"compound": "CC(C)C[C@H](NS(=O)(=O)CCN(C)C)C(=O)N1CCC[C@H]1C(=O)N[C@@H](Cc1ccccc1)C(=O)N[C@@H](Cc1ccccc1)C(=O)N[C@@H](CC(=O)O)C(N)=O (HELM PEPTIDE1{[CN(C)CCS(=O)(=O)[*:2]].L.P.F.F.D.[am]}$$$$V2.0)", "endpoint-value": "70%"}
{"compound": "CC(=O)N[C@@H](CC(C)C)C(=O)N1CCC[C@H]1CS(=O)(=O)N[C@@H](Cc1ccccc1)C(=O)N[C@@H](Cc1ccccc1)C(=O)N[C@@H](CC(=O)O)C(N)=O", "endpoint-value": "35%"}

Ref: ChEMBL document CHEMBL1154492
